- testedTarget: human α1H T-type channels (Homo sapiens, UniProt O95180)
- Sequence (O95180 whole entry): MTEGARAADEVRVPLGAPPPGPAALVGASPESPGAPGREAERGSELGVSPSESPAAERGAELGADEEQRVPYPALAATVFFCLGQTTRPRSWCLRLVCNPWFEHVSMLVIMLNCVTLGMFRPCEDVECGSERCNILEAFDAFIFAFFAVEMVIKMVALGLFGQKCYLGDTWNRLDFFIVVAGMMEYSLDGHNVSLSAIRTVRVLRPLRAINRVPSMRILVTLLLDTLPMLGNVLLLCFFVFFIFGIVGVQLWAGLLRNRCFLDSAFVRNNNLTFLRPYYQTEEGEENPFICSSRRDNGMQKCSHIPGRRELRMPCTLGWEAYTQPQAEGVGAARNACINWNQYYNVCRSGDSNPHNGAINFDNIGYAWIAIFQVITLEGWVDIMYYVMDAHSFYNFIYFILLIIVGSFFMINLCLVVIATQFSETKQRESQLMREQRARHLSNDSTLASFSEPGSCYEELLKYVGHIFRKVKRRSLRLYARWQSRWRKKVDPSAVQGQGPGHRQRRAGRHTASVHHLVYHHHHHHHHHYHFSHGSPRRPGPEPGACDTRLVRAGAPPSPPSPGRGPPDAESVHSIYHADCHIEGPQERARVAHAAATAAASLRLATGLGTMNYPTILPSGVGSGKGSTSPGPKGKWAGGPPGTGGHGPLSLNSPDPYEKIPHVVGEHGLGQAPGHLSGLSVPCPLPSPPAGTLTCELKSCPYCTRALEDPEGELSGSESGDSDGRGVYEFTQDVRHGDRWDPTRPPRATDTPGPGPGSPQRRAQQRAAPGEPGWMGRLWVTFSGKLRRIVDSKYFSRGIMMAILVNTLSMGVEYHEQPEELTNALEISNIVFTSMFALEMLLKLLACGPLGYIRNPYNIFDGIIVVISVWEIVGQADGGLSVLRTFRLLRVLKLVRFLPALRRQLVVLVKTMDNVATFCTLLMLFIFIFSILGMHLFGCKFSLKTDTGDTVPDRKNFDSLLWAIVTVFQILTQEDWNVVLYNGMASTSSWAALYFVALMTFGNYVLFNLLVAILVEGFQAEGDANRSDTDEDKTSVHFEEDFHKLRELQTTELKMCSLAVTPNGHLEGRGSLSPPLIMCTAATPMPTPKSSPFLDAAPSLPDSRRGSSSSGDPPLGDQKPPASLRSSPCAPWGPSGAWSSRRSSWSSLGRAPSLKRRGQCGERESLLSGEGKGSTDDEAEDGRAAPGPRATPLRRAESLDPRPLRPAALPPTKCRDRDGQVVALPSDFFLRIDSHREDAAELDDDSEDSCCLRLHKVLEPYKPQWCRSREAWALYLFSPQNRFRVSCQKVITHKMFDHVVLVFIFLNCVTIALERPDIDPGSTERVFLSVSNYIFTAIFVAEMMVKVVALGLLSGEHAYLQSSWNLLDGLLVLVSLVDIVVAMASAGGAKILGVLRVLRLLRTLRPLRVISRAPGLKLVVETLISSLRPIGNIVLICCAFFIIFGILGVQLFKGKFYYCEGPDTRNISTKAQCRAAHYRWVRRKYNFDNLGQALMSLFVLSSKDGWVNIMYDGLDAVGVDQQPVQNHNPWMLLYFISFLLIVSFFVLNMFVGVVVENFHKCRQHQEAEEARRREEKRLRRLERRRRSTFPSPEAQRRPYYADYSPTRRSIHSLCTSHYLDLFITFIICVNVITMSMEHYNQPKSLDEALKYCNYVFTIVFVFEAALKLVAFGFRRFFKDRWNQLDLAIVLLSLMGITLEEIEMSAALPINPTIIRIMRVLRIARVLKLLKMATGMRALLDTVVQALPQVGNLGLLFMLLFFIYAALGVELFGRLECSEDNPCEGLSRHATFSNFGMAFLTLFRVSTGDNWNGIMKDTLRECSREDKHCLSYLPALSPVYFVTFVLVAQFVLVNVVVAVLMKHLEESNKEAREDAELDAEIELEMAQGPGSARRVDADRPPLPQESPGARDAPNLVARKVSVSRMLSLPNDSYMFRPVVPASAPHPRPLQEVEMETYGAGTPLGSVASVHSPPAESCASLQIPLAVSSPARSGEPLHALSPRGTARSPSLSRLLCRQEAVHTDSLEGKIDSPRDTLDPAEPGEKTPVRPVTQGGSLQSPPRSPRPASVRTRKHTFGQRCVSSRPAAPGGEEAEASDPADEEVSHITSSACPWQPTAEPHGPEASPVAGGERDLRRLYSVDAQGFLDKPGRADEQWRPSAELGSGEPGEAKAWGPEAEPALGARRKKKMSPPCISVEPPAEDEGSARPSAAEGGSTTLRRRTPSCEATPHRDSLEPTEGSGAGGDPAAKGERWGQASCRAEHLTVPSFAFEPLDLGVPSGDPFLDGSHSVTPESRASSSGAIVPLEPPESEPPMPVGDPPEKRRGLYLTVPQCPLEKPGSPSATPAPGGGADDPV
- testDetails: T-type calcium channel block, whole cell patch clamp (α1H)
- testContext: HEK cells stably expressing human α1H; mainly non-inactivated protocol; values above 10 μM represented as 10 μM
measuredParameter: pIC50
Give bare numbers, as −log10 of the molar value.

CC(C)(C)C(O)CN[C@H]1CC[C@@H](CNC(=O)c2cc(C(F)(F)F)cc(C(F)(F)F)c2)CC1 (some centres unmarked) :: 6.24
CC(C)(C)[C@H](O)C(=O)NC1CCC(CC(=O)Nc2cc(C(F)(F)F)cc(C(F)(F)F)c2)CC1 (stereo in doubt) :: 5.82
CC(C)(C)c1nc(CNC[C@H]2CC[C@H](NC(=O)c3cc(C(F)(F)F)cc(C(F)(F)F)c3)CC2)no1 :: 5.71
O=C(NC[C@H]1CC[C@@H](NCc2cccc(F)c2O)CC1)c1cc(F)cc(C(F)(F)F)c1 :: 5.34

For O=C(C[C@H]1CC[C@H](NC(=O)[C@@H]2C[C@@H](c3ccccc3)CN2)CC1)Nc1cc(C(F)(F)F)cc(C(F)(F)F)c1 , what is its reported pIC50?
5.53
